Test system: NCI-H522 lung
Experiment: NCI tumour cell line growth inhibition, 48 h
TGI values for the compounds below.
MEASURED_METRIC: TGI (µM)

> print(dat)
                              record.smiles  measured.metric  value.prefix  measured.value
1  CC/C=C\C[C@H]1C/C=C2/C(=O)C=C[C@H]2C/C=C\CCCC(=O)O1              TGI             =            7.21
2  COc1ccc2[nH]c(Cl)c(/C=C3/C(=O)Nc4ccccc43)c2c1              TGI             =            1.87
3  O=S(=O)(O)c1ccc2c(N=Nc3cccc4ccccc34)c(O)ccc2c1              TGI             >             100
4  CC(C)OP(=O)(OC(C)C)C(=NCCO)NNc1ccc([N+](=O)[O-])cc1              TGI             >             100
5    c1ccc2c(c1)[nH]c1cnc3c4ncccc4[nH]c3c12              TGI             >             100

Origin of values: PubChem BioAssay (NCI)
